Target: 5-hydroxytryptamine receptor 2C (Homo sapiens)
Sequence (P28335 whole entry): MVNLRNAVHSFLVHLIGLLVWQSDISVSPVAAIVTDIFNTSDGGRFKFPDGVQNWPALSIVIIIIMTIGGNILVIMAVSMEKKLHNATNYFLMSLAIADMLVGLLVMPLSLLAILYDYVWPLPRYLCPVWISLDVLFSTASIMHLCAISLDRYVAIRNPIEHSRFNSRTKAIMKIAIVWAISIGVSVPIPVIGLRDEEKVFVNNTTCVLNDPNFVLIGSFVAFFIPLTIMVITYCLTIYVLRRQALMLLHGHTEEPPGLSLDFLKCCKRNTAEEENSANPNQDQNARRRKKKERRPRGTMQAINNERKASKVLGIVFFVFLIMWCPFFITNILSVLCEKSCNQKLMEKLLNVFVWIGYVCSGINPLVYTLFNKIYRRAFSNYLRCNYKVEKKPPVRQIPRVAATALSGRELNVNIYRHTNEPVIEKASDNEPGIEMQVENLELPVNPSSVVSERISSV
Assay: Binding affinity using [3H]mesulergine as radioligand with receptor membranes isolated from a CHO-k cell line expressing the human 5-hydroxytryptamine 2C receptor
Measured Ki of individual entries
EXPERIMENTAL READOUT: Ki (nM)

{"MOLECULE": "O=C1Nc2cc(C(F)(F)F)c(Cl)cc2N2CCNC[C@H]12", "UNIT SYMBOL": "nM", "NUMERIC READOUT": 160}
{"MOLECULE": "Clc1cc2c(cc1Cl)N1CCNC[C@@H]1CN2", "UNIT SYMBOL": "nM", "NUMERIC READOUT": 88}
{"MOLECULE": "O=C1Nc2cc(C(F)(F)F)c(Cl)cc2N2CCNCC12 (stereo not given)", "UNIT SYMBOL": "nM", "NUMERIC READOUT": 84}
{"MOLECULE": "Clc1cc2c(cc1Cl)N1CCNC[C@H]1CN2", "UNIT SYMBOL": "nM", "NUMERIC READOUT": 61}
{"MOLECULE": "FC(F)(F)c1cc2c(cc1Cl)N1CCNC[C@@H]1CN2", "UNIT SYMBOL": "nM", "NUMERIC READOUT": 92}

Provenance of the data: ChEMBL document CHEMBL1133296
